target: CRAF (Homo sapiens, UniProt P04049); construct: fused on or other part: GST tag (N-terminal according to the vendor's product); assay: CRAF kinase activity assay (ADP-Glo); type: biochemical; conditions: Table 3; 10 μM ATP, kinase-dead MEK1 substrate
Sequence (P04049 whole entry Y340E/Y341E, form open, the tested form may be a part): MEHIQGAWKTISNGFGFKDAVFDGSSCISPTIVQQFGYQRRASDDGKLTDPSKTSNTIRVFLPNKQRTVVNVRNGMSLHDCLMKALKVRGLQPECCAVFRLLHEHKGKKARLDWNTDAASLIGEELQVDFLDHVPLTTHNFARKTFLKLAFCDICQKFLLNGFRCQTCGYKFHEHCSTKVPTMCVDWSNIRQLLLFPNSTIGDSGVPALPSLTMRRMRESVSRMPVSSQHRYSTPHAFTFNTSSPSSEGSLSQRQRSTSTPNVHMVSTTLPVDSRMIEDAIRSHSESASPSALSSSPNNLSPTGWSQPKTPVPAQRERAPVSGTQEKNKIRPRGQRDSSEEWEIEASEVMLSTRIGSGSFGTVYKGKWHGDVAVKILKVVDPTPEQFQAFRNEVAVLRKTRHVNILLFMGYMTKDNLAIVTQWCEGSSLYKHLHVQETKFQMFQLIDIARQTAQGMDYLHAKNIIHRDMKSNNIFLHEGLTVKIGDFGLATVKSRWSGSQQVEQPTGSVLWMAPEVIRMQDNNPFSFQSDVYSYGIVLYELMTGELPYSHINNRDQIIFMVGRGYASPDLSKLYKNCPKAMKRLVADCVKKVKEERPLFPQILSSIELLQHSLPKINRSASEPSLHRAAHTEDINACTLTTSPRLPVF
Measured Attribute: IC50

Record excerpt, results attached:
compound_string=O=S(=O)(Nc1ccc(F)c(Nc2ncnc3sc(-n4cnc5c(F)cc(OCCO)cc54)nc23)c1F)c1cccc(Cl)c1Cl target_or_system="CRAF (Homo sapiens, UniProt P04049)" measured_attribute=IC50 reported_measurement="< 10 nM"
compound_string=O=S(=O)(Nc1ccc(F)c(Nc2ncnc3sc(-n4nnc5ccccc54)nc23)c1F)c1cccc(Cl)c1Cl target_or_system="CRAF (Homo sapiens, UniProt P04049)" measured_attribute=IC50 reported_measurement="10 to 50 nM"
compound_string=O=S(=O)(Nc1ccc(F)c(Nc2ncnc3sc(-n4cnc5c(F)c(F)ccc54)nc23)c1F)c1cccc(Cl)c1Cl target_or_system="CRAF (Homo sapiens, UniProt P04049)" measured_attribute=IC50 reported_measurement="< 10 nM"
compound_string=CC(C)(C#N)c1cccc2c1ncn2-c1nc2c(Nc3c(F)ccc(NS(=O)(=O)c4cccc(Cl)c4Cl)c3F)ncnc2s1 target_or_system="CRAF (Homo sapiens, UniProt P04049)" measured_attribute=IC50 reported_measurement="10 to 50 nM"
compound_string=O=C(c1cn(-c2nc3c(Nc4c(F)ccc(NS(=O)(=O)c5cccc(Cl)c5Cl)c4F)ncnc3s2)c2ccccc12)N1CC2(CCOCC2)C1 target_or_system="CRAF (Homo sapiens, UniProt P04049)" measured_attribute=IC50 reported_measurement="< 10 nM"

Let us move to another entry and its IC50.
State the recorded IC50 for this entry: CC(C)S(=O)(=O)c1cn(-c2nc3c(Nc4c(F)ccc(NS(=O)(=O)c5cccc(Cl)c5Cl)c4F)ncnc3s2)c2ccccc12
> 50 nM

====

Reported values of IC50 for individual entries
target: CRAF (Homo sapiens, UniProt P04049); construct: fused on or other part: GST tag (N-terminal according to the vendor's product); test: CRAF kinase activity assay (ADP-Glo); assay type: biochemical; conditions: Table 3; 10 μM ATP, kinase-dead MEK1 substrate

Record excerpt, results attached:
compound=N#CCc1cn(-c2nc3c(Nc4c(F)ccc(NS(=O)(=O)c5cccc(Cl)c5Cl)c4F)ncnc3s2)cn1 measured_attribute=IC50 reported_measurement="< 0.01 µM"
compound="CC(C)(O)C1CCCN1C(=O)c1cn(-c2nc3c(Nc4c(F)ccc(NS(=O)(=O)c5cccc(Cl)c5Cl)c4F)ncnc3s2)c2ccc(F)cc12 (stereo not shown)" measured_attribute=IC50 reported_measurement="0.01 to 0.05 µM"
compound=O=S(=O)(Nc1ccc(F)c(Nc2ncnc3sc(-n4cnc5c(N6CCC7(CCOC7)CC6)cccc54)nc23)c1F)c1cccc(Cl)c1Cl measured_attribute=IC50 reported_measurement="> 0.05 µM"
compound=CCC1(O)CCN(c2cccc3c2ncn3-c2nc3c(Nc4c(F)ccc(NS(=O)(=O)c5cccc(Cl)c5Cl)c4F)ncnc3s2)CC1 measured_attribute=IC50 reported_measurement="0.01 to 0.05 µM"
compound=O=S(=O)(Nc1ccc(F)c(Nc2ncnc3sc(-n4cnc(CCO)c4)nc23)c1F)c1cccc(Cl)c1Cl measured_attribute=IC50 reported_measurement="0.01 to 0.05 µM"
compound=Cc1c(F)cccc1S(=O)(=O)Nc1ccc(F)c(Nc2ncnc3sc(-n4cc(C(=O)N(C)Cc5cccnc5)c5ccccc54)nc23)c1F measured_attribute=IC50 reported_measurement="< 0.01 µM"
compound=COCCOc1ccc2c(ncn2-c2nc3c(Nc4c(F)ccc(NS(=O)(=O)c5cccc(Cl)c5Cl)c4F)ncnc3s2)c1F measured_attribute=IC50 reported_measurement="< 0.01 µM"
compound=N#CCC1CN(C(=O)c2cn(-c3nc4c(Nc5c(F)ccc(NS(=O)(=O)c6cccc(Cl)c6Cl)c5F)ncnc4s3)c3ccccc23)C1 measured_attribute=IC50 reported_measurement="< 0.01 µM"

Let us move to another entry and its IC50.
State the recorded IC50 for this entry: N#CC1CN(C(=O)c2cn(-c3nc4c(Nc5c(F)ccc(NS(=O)(=O)c6cccc(Cl)c6Cl)c5F)ncnc4s3)c3ccccc23)C1
< 0.01 µM

====

Reported values of IC50 for individual entries
target: BRAF (Homo sapiens, UniProt P15056); construct: GST; purchased Millipore Sigma B4062-10UG; assay: BRAF kinase activity assay (ADP-Glo); type: biochemical; conditions: Table 3; 10 μM ATP, kinase-dead MEK1 substrate
Sequence (P15056 whole entry): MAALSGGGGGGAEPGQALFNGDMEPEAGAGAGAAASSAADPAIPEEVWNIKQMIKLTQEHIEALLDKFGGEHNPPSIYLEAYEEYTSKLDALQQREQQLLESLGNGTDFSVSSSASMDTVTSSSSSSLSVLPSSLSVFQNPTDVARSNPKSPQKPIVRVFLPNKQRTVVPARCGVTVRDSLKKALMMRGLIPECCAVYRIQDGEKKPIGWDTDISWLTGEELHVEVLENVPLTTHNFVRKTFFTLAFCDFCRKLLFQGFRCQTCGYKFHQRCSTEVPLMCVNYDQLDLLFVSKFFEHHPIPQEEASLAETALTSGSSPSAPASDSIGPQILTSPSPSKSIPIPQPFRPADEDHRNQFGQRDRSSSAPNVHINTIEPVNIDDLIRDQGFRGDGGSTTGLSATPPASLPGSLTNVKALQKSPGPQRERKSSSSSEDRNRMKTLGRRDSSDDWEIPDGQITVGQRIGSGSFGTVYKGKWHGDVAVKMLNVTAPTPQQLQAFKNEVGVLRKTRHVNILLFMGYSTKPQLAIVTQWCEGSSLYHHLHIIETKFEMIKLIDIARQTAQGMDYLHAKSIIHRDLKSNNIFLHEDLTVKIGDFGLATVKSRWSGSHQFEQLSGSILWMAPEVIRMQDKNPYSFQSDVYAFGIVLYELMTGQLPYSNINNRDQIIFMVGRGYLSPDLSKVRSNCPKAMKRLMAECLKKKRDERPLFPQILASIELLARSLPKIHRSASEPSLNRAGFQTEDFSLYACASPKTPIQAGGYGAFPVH

State the recorded IC50 for this entry: O=C1CCCN1c1cn(-c2nc3c(Nc4c(F)ccc(NS(=O)(=O)c5cccc(Cl)c5Cl)c4F)ncnc3s2)c2ccccc12
1 to 10 nM

Likewise for CC1COCCN1S(=O)(=O)c1cn(-c2nc3c(Nc4c(F)ccc(NS(=O)(=O)c5cccc(Cl)c5Cl)c4F)ncnc3s2)c2ccccc12 (stereo not drawn) ?
> 10 nM

====

Reported values of IC50 for individual entries
biological target: BRAF (Homo sapiens); construct: GST; purchased Millipore Sigma B4062-10UG; assay: BRAF kinase activity assay (ADP-Glo); assay type: biochemical; settings: Table 3; 10 μM ATP, kinase-dead MEK1 substrate

Record excerpt, results attached:
compound=C[C@@H]1CN(S(=O)(=O)c2cn(-c3nc4c(Nc5c(F)ccc(NS(=O)(=O)c6cccc(Cl)c6Cl)c5F)ncnc4s3)c3ccccc23)C[C@H](C)N1 measured_attribute=IC50 reported_measurement="1 to 10 nM"
compound=CS(=O)(=O)c1cn(-c2nc3c(Nc4c(F)ccc(NS(=O)(=O)c5cccc(Cl)c5Cl)c4F)ncnc3s2)c2ccccc12 measured_attribute=IC50 reported_measurement="1 to 10 nM"
compound=O=S(=O)(Nc1ccc(F)c(Nc2ncnc3sc(-n4cnc5ccccc54)nc23)c1F)c1ccccc1Cl measured_attribute=IC50 reported_measurement="1 to 10 nM"
compound=Cc1c(Cl)cccc1S(=O)(=O)Nc1ccc(F)c(Nc2ncnc3sc(-n4cnc5c(-c6cccnc6)cccc54)nc23)c1F measured_attribute=IC50 reported_measurement="1 to 10 nM"

GET /values?readout=IC50&system=BRAF (Homo sapiens)&item= O=S(=O)(Nc1ccc(F)c(Nc2ncnc3sc(-n4cnc5c(OCCO)cccc54)nc23)c1F)c1cccc(Cl)c1Cl
< 1 nM

Likewise for O=C(c1cn(-c2nc3c(Nc4c(F)ccc(NS(=O)(=O)c5cccc(Cl)c5Cl)c4F)ncnc3s2)c2ccccc12)N1CCCC(O)C1 (centres unmarked) ?
< 1 nM

Likewise for N#CCc1cn(-c2nc3c(Nc4c(F)ccc(NS(=O)(=O)c5cccc(Cl)c5Cl)c4F)ncnc3s2)cn1 ?
1 to 10 nM

Likewise for O=S(=O)(Nc1ccc(F)c(Nc2ncnc3sc(-n4cc(S(=O)(=O)C5CCCC5)c5ccccc54)nc23)c1F)c1cccc(Cl)c1Cl ?
1 to 10 nM

Likewise for N#CC1CN(C(=O)c2cn(-c3nc4c(Nc5c(F)ccc(NS(=O)(=O)c6cccc(Cl)c6Cl)c5F)ncnc4s3)c3ccccc23)C1 ?
1 to 10 nM

Likewise for CN1CC2CCC(C1)N2S(=O)(=O)c1cn(-c2nc3c(Nc4c(F)ccc(NS(=O)(=O)c5cccc(Cl)c5Cl)c4F)ncnc3s2)c2ccccc12 ?
1 to 10 nM

Likewise for COC1CCN(c2cccc3c2ncn3-c2nc3c(Nc4c(F)ccc(NS(=O)(=O)c5cccc(Cl)c5Cl)c4F)ncnc3s2)CC1 ?
1 to 10 nM

Likewise for NC(=O)c1cccc2c1ncn2-c1nc2c(Nc3c(F)ccc(NS(=O)(=O)c4cccc(Cl)c4Cl)c3F)ncnc2s1 ?
1 to 10 nM

Likewise for O=C(c1cn(-c2nc3c(Nc4c(F)ccc(NS(=O)(=O)c5cccc(Cl)c5Cl)c4F)ncnc3s2)c2ccccc12)N1CCC(CO)C1 (centres unmarked) ?
< 1 nM

Likewise for Cc1c(F)cccc1S(=O)(=O)Nc1ccc(F)c(Nc2ncnc3sc(-n4cc(C(=O)N(C)Cc5cccnc5)c5ccccc54)nc23)c1F ?
1 to 10 nM

Likewise for O=C(c1cn(-c2nc3c(Nc4c(F)ccc(NS(=O)(=O)c5cccc(Cl)c5Cl)c4F)ncnc3s2)c2cccc(F)c12)N1C2CCC1COC2 ?
< 1 nM

Likewise for Cc1cn(-c2nc3c(Nc4c(F)ccc(NS(=O)(=O)c5cccc(Cl)c5Cl)c4F)ncnc3s2)cn1 ?
1 to 10 nM

Likewise for Cc1c(F)cccc1S(=O)(=O)Nc1ccc(F)c(Nc2ncnc3sc(-n4nc(C(=O)N(C)CCN(C)C)c5ccccc54)nc23)c1F [Example 39] ?
< 1 nM

Likewise for O=S(=O)(Nc1ccc(F)c(Nc2ncnc3sc(-n4cnc5c(F)cccc54)nc23)c1F)c1ccccc1Cl ?
1 to 10 nM

Likewise for COCCOc1ccc2c(ncn2-c2nc3c(Nc4c(F)ccc(NS(=O)(=O)c5cccc(Cl)c5Cl)c4F)ncnc3s2)c1F ?
1 to 10 nM

Likewise for COC[C@@H]1CCCN1c1cccc2c1ncn2-c1nc2c(Nc3c(F)ccc(NS(=O)(=O)c4cccc(Cl)c4Cl)c3F)ncnc2s1 ?
> 10 nM

Likewise for Cc1c(F)cccc1S(=O)(=O)Nc1ccc(F)c(Nc2ncnc3sc(-n4cnc5ccccc54)nc23)c1F ?
1 to 10 nM

Likewise for O=S(=O)(Nc1ccc(F)c(Nc2ncnc3sc(-n4cnc5c(N6CCC7(CCOC7)CC6)cccc54)nc23)c1F)c1cccc(Cl)c1Cl ?
> 10 nM

Likewise for N#CCC1CN(C(=O)c2cn(-c3nc4c(Nc5c(F)ccc(NS(=O)(=O)c6cccc(Cl)c6Cl)c5F)ncnc4s3)c3ccccc23)C1 ?
< 1 nM

Likewise for NS(=O)(=O)c1cn(-c2nc3c(Nc4c(F)ccc(NS(=O)(=O)c5cccc(Cl)c5Cl)c4F)ncnc3s2)c2ccccc12 ?
1 to 10 nM

Likewise for COc1ccc(S(=O)(=O)Nc2ccc(F)c(Nc3ncnc4sc(-n5cnc6c(C(C)(C)C#N)cccc65)nc34)c2F)c(C)c1F ?
> 10 nM

Likewise for Nc1ccncc1-c1cccc2c1ncn2-c1nc2c(Nc3c(F)ccc(NS(=O)(=O)c4cccc(Cl)c4Cl)c3F)ncnc2s1 ?
1 to 10 nM
